src = the MegaScale stability set (Tsuboyama et al. 2023)

B1: EEHEE_rd3_0130 (parent)
chain: TKIIVNGKTFTAPTEEEAQKIAEKLAKKAGLTVHKKNGTFELK

- Variants of: B1
- assay summary: folding stability dG (cDNA display proteolysis); higher = more stable
- settings: PBS, room temperature
experimental readout: folding stability dG (kcal/mol)
Quick note: give the figure in kcal/mol, leave out the unit.

*Q* I would be grateful if you could share the reported folding stability dG for A12I .
*A* 1.26

*Q* Next up: E17W
*A* 0.923

*Q* What do you get for A29G ?
*A* 0.616

*Q* And what about the variant E17R ?
*A* 0.677

*Q* Note, next up: K8F
*A* 1.25

*Q* Param item: Q19R
*A* 1.04

*Q* How about N6W ?
*A* 1.47

*Q* # repeat for E41K
*A* -0.978

*Q* Can you handle K35G next?
*A* 0.063

*Q* Another variant to look at: E41V
*A* 1.09

*Q* Same thing, different variant: Q19G
*A* 0.357

*Q* Further, for L25E ?
*A* -0.265

*Q* // same read-out, input: K28L
*A* 1.03

*Q* Next: T32A
*A* 0.577

*Q* And then K24S , what is it?
*A* 0.873

*Q* Now consider K28G and answer again.
*A* 0.475

*Q* And what about the variant V33H ?
*A* -0.447

*Q* Check K35H too.
*A* 0.653

*Q* Record: L25W
*A* 1.48

*Q* Entry to check: K8N
*A* 0.238

*Q* T39F , same question.
*A* 1.21

*Q* Thanks! And K27V ?
*A* 0.456

*Q* Next record, please: K43I
*A* 1.33

*Q* // repeat for K35S and report
*A* 0.33

*Q* Same question for F40C please.
*A* 0.982

*Q* Field entry: L31M
*A* 0.895

*Q* Next up: I4V
*A* 0.695

*Q* Then what about the variant A12L ?
*A* 1.19

*Q* // query: T11M
*A* 0.947

*Q* Same for K35A
*A* 0.318

*Q* What would you report for I4D ?
*A* -0.441

*Q* Next record, please: I3R
*A* -0.394

*Q* Entry K24R please
*A* 1.08

*Q* // next record K27G
*A* 0.228

*Q* Can you check T32I next?
*A* 0.92

*Q* Moving on to the next variant: T9P
*A* -0.619

*Q* How about this variant: T11H
*A* 0.697

*Q* Again, but for L42P
*A* 0.076

*Q* Record: K43M
*A* 0.985

*Q* What would you report for V5S ?
*A* -0.322

*Q* Entry to check: K28Q
*A* 0.873

*Q* # repeat for P13Y
*A* 0.302

*Q* Another variant to look at: K27Q
*A* 0.76

*Q* How about G38Y ?
*A* 0.009

*Q* Cool, now P13D
*A* 0.664

*Q* Entry A29W please
*A* 3.21
